- MEASURED ON: Beta-glucuronidase (Escherichia coli (strain K12), UniProt P05804)
- Sequence (P05804 whole entry): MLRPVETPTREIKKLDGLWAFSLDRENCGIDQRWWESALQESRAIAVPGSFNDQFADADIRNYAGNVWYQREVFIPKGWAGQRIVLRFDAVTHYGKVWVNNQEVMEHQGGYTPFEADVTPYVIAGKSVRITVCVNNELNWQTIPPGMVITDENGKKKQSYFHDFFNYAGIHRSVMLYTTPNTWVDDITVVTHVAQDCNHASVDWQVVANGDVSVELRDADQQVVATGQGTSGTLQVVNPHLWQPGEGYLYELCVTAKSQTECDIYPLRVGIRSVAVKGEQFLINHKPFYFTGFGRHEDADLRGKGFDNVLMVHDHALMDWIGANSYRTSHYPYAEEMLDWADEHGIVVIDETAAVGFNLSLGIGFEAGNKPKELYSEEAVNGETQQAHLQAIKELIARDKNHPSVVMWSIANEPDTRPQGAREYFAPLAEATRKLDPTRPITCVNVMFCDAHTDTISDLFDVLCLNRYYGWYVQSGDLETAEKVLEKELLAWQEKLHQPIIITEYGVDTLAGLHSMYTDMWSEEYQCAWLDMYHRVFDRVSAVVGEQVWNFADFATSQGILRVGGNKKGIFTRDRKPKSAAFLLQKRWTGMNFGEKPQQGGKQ
- EXPERIMENTAL DETAILS: Non-competitive inhibition of Escherichia coli beta-glucuronidase assessed as reduction of p-nitrophenol release using beta-PNPG as substrate incubated for 30 mins by Spectra max microplate reader analysis
READOUT KIND: IC50 (µM)
Respond with the bare value in µM.

Query: // lookup IC50 for `CCC1=C[C@@H](O)[C@@H](O)[C@H](Cl)C1=O`
Result: 1.26

Query: Could you do the same for `OCc1cc(O)cc(Cl)c1O` , please?
Result: 0.74

====

Measured IC50 by item
- MEASURED ON: Beta-glucuronidase (Escherichia coli (strain K12), UniProt P05804)
- EXPERIMENTAL DETAILS: Inhibition of Escherichia coli beta-glucuronidase assessed as reduction of p-nitrophenol release using beta-PNPG as substrate incubated for 30 mins by Spectra max microplate reader analysis

Consider the reported IC50 for these molecules:
Query: // lookup IC50 for `C[C@H]1C[C@H](O)[C@@H](OCc2cc(O)cc(Cl)c2O)C[C@H]1O`
Result: 400 nM

Query: Could you do the same for `O=C1C(COCc2cc(O)cc(Cl)c2O)=C[C@@H](O)[C@@H](O)[C@@H]1Cl` , please?
Result: 1910 nM

Query: Could you do the same for `O=C(OCc1cc(O)cc(Cl)c1O)c1cnccc1O` , please?
Result: 1950 nM

Query: Could you do the same for `Oc1cc(Cl)c(O)c(COCc2cc(O)cc(Cl)c2O)c1` , please?
Result: 580 nM

Query: Could you do the same for `C[C@H]1C[C@H](OCc2cc(O)cc(Cl)c2O)[C@@H](O)C[C@H]1O` , please?
Result: 640 nM

Query: Could you do the same for `C[C@H]1C[C@H](O)[C@@H](O)C[C@H]1OCc1cc(O)cc(Cl)c1O` , please?
Result: 630 nM

---
Query: // lookup IC50 for `CO[C@@H]1[C@@H](O)C=C(Cl)C(=O)[C@]12CCc1cc(O)cc(Cl)c1O2`
Result: 1420 nM

Query: Could you do the same for `O=C1C(Cl)=C[C@H](O)[C@@H](O)[C@@]12CCc1cc(O)cc(Cl)c1O2` , please?
Result: 2830 nM

====

- MEASURED ON: Beta-glucuronidase (Escherichia coli (strain K12), UniProt P05804)
- EXPERIMENTAL DETAILS: Inhibition of Escherichia coli beta-glucuronidase assessed as reduction of p-nitrophenol release using beta-PNPG as substrate incubated for 30 mins by Spectra max microplate reader analysis
Lab note: cut-off is 2000 nM. Strictly less in IC50 is yes. Exactly 2000 nM or more is no.

Example entries begin here.
Query: Input `CCCCO[C@@H]1C(=O)C(C)=C[C@@H](O)[C@H]1O` ; condition: IC50 strictly below 2000 nM. Does it hold?
Result: no

Query: Could you do the same for `O=C1C(Cl)=C[C@H](O)[C@H](O)[C@@]12CCc1cc(O)cc(Cl)c1O2` , please?
Result: no

Query: Could you do the same for `O=C1C(Cc2cc(O)cc(Cl)c2O)=C[C@H](O)[C@@H](O)[C@@]12CCc1cc(O)c(Cl)c(Cl)c1O2` , please?
Result: yes

Query: Could you do the same for `O=C(O)[C@@H](O)[C@H]1OC(=O)[C@H](O)[C@H]1O` , please?
Result: no

Proceed to the following item.
Query: Input `CC1=C[C@@H](O)[C@@H](O)[C@H](Cl)C1=O` ; condition: IC50 strictly below 2000 nM. Does it hold?
Result: yes

====

- MEASURED ON: Beta-glucuronidase (Escherichia coli (strain K12))
- EXPERIMENTAL DETAILS: Inhibition of Escherichia coli beta-glucuronidase assessed as inhibition constant using beta-PNPG as substrate incubated for 30 mins by Lineweaver-Burk plot analysis
READOUT KIND: Ki
Returns: string containing the numeric result and its unit.

Consider the reported Ki for these compounds:
Query: Request: Ki, test system Beta-glucuronidase (Escherichia coli (strain K12)), entry `O=C1C(COCc2cc(O)cc(Cl)c2O)=C[C@@H](O)[C@@H](O)[C@@H]1Cl`
Result: 0.86 µM

Query: Could you do the same for `O=C1C(Cc2cc(O)cc(Cl)c2O)=C[C@H](O)[C@@H](O)[C@@]12CCc1cc(O)c(Cl)c(Cl)c1O2` , please?
Result: 1.09 µM

---
Query: Request: Ki, test system Beta-glucuronidase (Escherichia coli (strain K12)), entry `C[C@H]1C[C@H](O)[C@@H](O)C[C@H]1OCc1cc(O)cc(Cl)c1O`
Result: 1.64 µM

Query: Could you do the same for `C[C@H]1C[C@H](O)[C@@H](OCc2cc(O)cc(Cl)c2O)C[C@H]1O` , please?
Result: 3.47 µM

Query: Could you do the same for `O=C(OCc1cc(O)cc(Cl)c1O)c1cnccc1O` , please?
Result: 1.55 µM

Query: Could you do the same for `O=C1C(Cl)=C[C@H](O)[C@H](O)[C@@]12CCc1cc(O)cc(Cl)c1O2` , please?
Result: 4.43 µM

Query: Could you do the same for `CC1=C[C@@H](O)[C@@H](O)[C@H](Cl)C1=O` , please?
Result: 0.67 µM

Query: Could you do the same for `C[C@H]1C[C@H](OCc2cc(O)cc(Cl)c2O)[C@@H](O)C[C@H]1O` , please?
Result: 4.27 µM

Query: Could you do the same for `CCCCO[C@@H]1C(=O)C(C)=C[C@@H](O)[C@H]1O` , please?
Result: 7.32 µM

Query: Could you do the same for `Oc1cc(Cl)c(O)c(COCc2cc(O)cc(Cl)c2O)c1` , please?
Result: 0.71 µM

Query: Could you do the same for `O=C1C(Cl)=C[C@H](O)[C@@H](O)[C@@]12CCc1cc(O)cc(Cl)c1O2` , please?
Result: 1.16 µM

Query: Could you do the same for `CO[C@@H]1[C@@H](O)C=C(Cl)C(=O)[C@]12CCc1cc(O)cc(Cl)c1O2` , please?
Result: 2.66 µM

Taken from ChEMBL document CHEMBL5352397.
